Reference source for all entries: patent US8889875B2

- measured_target: ΔF508-CFTR (Homo sapiens, UniProt P13569, DEL508-508)
- Construct: expressed in transfected cells
- Sequence (P13569 with tags, fused parts or gaps DEL508-508): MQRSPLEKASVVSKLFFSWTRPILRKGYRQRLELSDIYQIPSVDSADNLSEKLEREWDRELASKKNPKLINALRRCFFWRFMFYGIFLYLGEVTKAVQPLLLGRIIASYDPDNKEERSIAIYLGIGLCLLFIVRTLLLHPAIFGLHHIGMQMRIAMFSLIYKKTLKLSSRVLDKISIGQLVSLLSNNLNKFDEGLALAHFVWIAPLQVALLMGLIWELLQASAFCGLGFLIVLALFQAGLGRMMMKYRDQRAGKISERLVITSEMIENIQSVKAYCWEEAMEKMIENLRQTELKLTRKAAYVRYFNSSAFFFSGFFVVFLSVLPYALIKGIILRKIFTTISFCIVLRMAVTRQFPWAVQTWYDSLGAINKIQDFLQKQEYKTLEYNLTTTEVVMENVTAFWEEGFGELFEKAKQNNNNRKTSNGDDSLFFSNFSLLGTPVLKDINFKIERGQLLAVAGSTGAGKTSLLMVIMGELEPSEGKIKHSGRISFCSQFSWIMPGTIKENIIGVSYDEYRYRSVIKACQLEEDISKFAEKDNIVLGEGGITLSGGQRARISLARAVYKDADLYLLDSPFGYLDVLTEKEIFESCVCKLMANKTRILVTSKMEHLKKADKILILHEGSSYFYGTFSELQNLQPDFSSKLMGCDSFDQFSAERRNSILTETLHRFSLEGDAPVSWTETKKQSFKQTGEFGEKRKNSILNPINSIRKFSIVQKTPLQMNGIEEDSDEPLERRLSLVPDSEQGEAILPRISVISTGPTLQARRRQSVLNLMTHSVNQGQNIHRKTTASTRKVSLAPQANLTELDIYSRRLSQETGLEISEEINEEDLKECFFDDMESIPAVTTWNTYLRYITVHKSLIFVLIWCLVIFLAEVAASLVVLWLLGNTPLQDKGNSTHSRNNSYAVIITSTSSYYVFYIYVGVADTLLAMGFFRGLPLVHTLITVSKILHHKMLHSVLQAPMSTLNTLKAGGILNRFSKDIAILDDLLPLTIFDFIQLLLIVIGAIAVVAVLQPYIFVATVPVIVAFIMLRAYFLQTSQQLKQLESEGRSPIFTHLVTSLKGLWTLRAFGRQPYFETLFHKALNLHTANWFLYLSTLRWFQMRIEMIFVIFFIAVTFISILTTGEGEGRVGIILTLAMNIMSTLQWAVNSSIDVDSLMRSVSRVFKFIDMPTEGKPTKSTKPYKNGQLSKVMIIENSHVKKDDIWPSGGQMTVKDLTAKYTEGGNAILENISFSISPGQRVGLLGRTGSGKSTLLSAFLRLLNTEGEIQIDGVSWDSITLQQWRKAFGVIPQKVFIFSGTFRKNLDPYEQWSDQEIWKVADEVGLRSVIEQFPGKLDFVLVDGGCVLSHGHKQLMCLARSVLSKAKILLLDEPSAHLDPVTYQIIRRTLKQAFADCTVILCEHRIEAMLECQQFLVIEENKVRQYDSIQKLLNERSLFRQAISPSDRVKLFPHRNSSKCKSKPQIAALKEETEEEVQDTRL
- experiment_summary: Membrane potential optical assay, identification of correction compounds (single-addition HTS format)
- Format: cell-based
- run_conditions: PercentActivity; ΔF508-CFTR in NIH3T3 mouse fibroblasts; 16-24 hrs with compound; 10 μM forskolin and 20 μM genistein; read-out: BinnedMaxEfficacy
- Source text: Membrane Potential Optical Methods for Assaying ΔF508-CFTR Modulation Properties of Compounds. The assay utilizes fluorescent voltage sensing dyes to measure changes in membrane potential using a fluorescent plate reader (e.g., FLIPR III, Molecular Devices, Inc.) as a readout for increase in functional ΔF508-CFTR in NIH 3T3 cells. […]
parameter: Emax

Here is how some compounds turned out for Emax.
compound	assay_value
COc1ccccc1C(=O)c1ccc(NC(=O)C2(c3ccc4c(c3)OC(F)(F)O4)CC2)nc1	> 100%
COc1ccccc1C(c1ccc(NC(=O)C2(c3ccc4c(c3)OCO4)CC2)nc1)N1CCCCC1 (stereo not shown)	> 100%
COc1ccccc1C(O)c1ccc(NC(=O)C2(c3ccc4c(c3)OCO4)CC2)nc1 (stereo not shown)	> 100%
COc1ccccc1C(c1ccc(NC(=O)C2(c3ccc4c(c3)OCO4)CC2)nc1)N1CC(C)OC(C)C1 (stereo not shown)	> 100%
COc1ccccc1C(OCCN1CCOCC1)c1ccc(NC(=O)C2(c3ccc4c(c3)OCO4)CC2)nc1 (stereo not shown)	> 100%
NC(=O)c1ccc(NC(=O)C2(c3ccc4c(c3)OCO4)CC2)nc1	25 to 100%
COc1ccccc1C(OCCN(C(C)C)C(C)C)c1ccc(NC(=O)C2(c3ccc4c(c3)OCO4)CC2)nc1 (stereo not shown)	25 to 100%
CCCOC(c1ccc(NC(=O)C2(c3ccc4c(c3)OCO4)CC2)nc1)c1ccccc1OC (stereo not shown)	> 100%

Problem: Which measured Emax value corresponds to Cc1ccnc(NC(=O)C2(c3ccc4c(c3)OCO4)CC2)c1 ?
Solution: > 100%

Problem: Which measured Emax value corresponds to COc1ccccc1Cc1ccc(NC(=O)C2(c3ccc(C)cc3)CC2)nc1 ?
Solution: 25 to 100%

Problem: Which measured Emax value corresponds to CC(C)Cc1cccc(NC(=O)C2(c3ccc4c(c3)OCO4)CC2)n1 ?
Solution: > 100%

Problem: Which measured Emax value corresponds to COc1ccccc1Nc1cccc(NC(=O)C2(c3ccc4c(c3)OCO4)CC2)n1 ?
Solution: 25 to 100%

Problem: Which measured Emax value corresponds to CCc1ccnc(NC(=O)C2(c3ccc4c(c3)OCO4)CC2)c1 ?
Solution: > 100%
